- system: HCV NS3/4A PR (S139A) (Hepatitis C virus subtype 1a, UniProt A8DG50, A1066T/I1043Q/I1044E/L1039E/L1040E/L1047Q/S1165A, form not given)
- procedure-details: Biacore 8K binding kinetics of PRSIM binding molecules
- study-conditions: 10 nM simeprevir present
property-name: Rmax

>>> test_result("PRSIM_04: scFv PRSIM binding molecule, SEQ ID NO: 11 (protein, PRSIM_04) scFv: QVQLVQSGAEVKKPGSSVKVSCKASGGTFSSYAISWVRQAPGQGLEWMGGIIPIFGTANYAQKFQGRVTITADESTSTAYMELSSLRSEDTAVYYCARGMAHFYQFDLWGQGTLVTVSSGGGGSGGGGSGGGGSAQSVLTQPPSASGTPGQRVTISCSGSSSNIGSNTVNWYQQLPGTAPKLLIYSNNQRPSGVPDRFSGSKSGTSASLAISGLQSEDEADYYCAAGDHDHEHVVFGGGTKLTVL")
"65.9 RUs"
